Each entry below carries its recorded Growth Rate.
Test system: U2OS
protocolDescription: Incucyte cell viability with U2OS; also: unitless GR value; below 1 slowed growth and below 0 cell loss
Type: toxicity, cell-based
conditions: human, 24 h, 10 µM, compound concentration 10 uM, replicate number 2
valueType: Growth Rate

1. Cc1ccc(S(=O)(=O)O)cc1.Cn1cc(Nc2nccc(N3CC4CCC(C3)N4C(=O)[C@@H]3CC3(F)F)n2)cn1
0.8
2. CCOc1ccc(S(=O)(=O)Nc2ccc(Cl)cc2C#Cc2cnc(C(=O)[O-])cc2OC)c2ncccc12.[K+]
0.81
3. CN(C)c1ccc(-c2cc3ncccc3c(OCCCCO)n2)cc1.O=C(O)C(F)(F)F
0.64
4. O=C(NC1CCNCC1)c1n[nH]cc1NC(=O)c1c(Cl)cccc1Cl
0.03
5. CNc1ncc2cc(-c3ccc(-c4cccc(C)n4)cc3Cl)c(=O)n(C[C@H]3OC[C@H](N)CO3)c2n1
0.53
6. O=C1c2c(Br)c(Br)c(Br)c(Br)c2C(=O)N1c1ncc[nH]1
0.85
7. CCCCCN1C(=O)C2(COc3cc4c(cc32)OCO4)c2ccccc21 (stereo not given)
0.88
8. Cc1noc(C)c1-c1cnc2c(-c3ccc(C(=O)O)cc3)cn([C@@H](C)c3ccccn3)c2c1
1
9. CN1CCN(c2ccc(C(=O)Nc3n[nH]c4ccc(Cc5cc(F)cc(F)c5)cc34)c(NC3CCOCC3)c2)CC1
-0.6
10. O=C1N=C(NCc2cccs2)S/C1=C\c1ccc2ncccc2c1
0.78

----------
Test system: HEK-293T
protocolDescription: Incucyte cell viability with HEK293T; also: unitless GR value; below 1 slowed growth and below 0 cell loss
Type: toxicity, cell-based
conditions: human, 18 h, 10 µM, compound concentration 10 uM, replicate number 2
valueType: Growth Rate

1. Cn1cc(-n2cnc3c(NCc4nc5cc(Cl)c(Cl)cc5[nH]4)nc(N4CCOCC4)nc32)cn1
-0.48
2. CCc1c(-c2ccc3[nH]ncc3c2)cnc(N)c1-c1ccc(O)cc1
0.91
3. Cc1cc(Cn2c(N3CC4(CNC4)C3)nc3c(N4CCN(C)CC4)cc(Cl)cc32)cc(C)c1F
-0.74
4. O=C1NC(Nc2ccccc2)=N/C1=C\c1ccc2c(c1)OCO2
0.47
5. O=C(NCCN1CCOCC1)c1ccc2nn(CCOc3ccc(Cl)cc3)cc2c1
0.47
6. Nc1ncc2c(n1)-c1c([nH]c3ccc(C4CC4)cc13)CCCC2
0.8
7. CCOC(=O)C1=C(C)NC(C)=C(C(=O)OC)C1c1cccc([N+](=O)[O-])c1 (stereo unspecified) [NITRENDIPINE]
0.99
8. O=C1NC(=NCc2cccs2)SC1=Cc1ccc2ncccc2c1
0.53
9. Cc1cc(-c2nc(-c3ccc(OC(F)(F)F)cc3)no2)nn1Cc1ccnc(N2CCN(C3CC3)CC2)c1
0.18
10. CCOCCn1cc(C(=O)Nc2ccc(-n3nc(-c4cccnc4)cc3C(F)(F)F)cn2)ccc1=O [BI 1935]
0.43
11. N#Cc1ccnc(Nc2cc(C3CCN(C4COC4)CC3)cc(N3CCC(F)(F)C3)n2)c1
-0.37

----------
Each entry below carries its recorded Growth Rate.
System: HEK-293T
protocolDescription: Incucyte cell viability with HEK293T; also: unitless GR value; below 1 slowed growth and below 0 cell loss
Type: toxicity, cell-based
conditions: human, 18 h, 10 µM, compound concentration 10 uM, replicate number 1
valueType: Growth Rate

1. CC[C@]1(C)C[C@@H](OC(=O)CSc2nnc(N)[nH]2)[C@@]2(C)[C@H](C)CC[C@@]3(CCC(=O)[C@H]32)[C@@H](C)[C@@H]1O
0.65
2. CC1=C(C(=O)OCCO)[C@@H](c2ccc(C#N)cc2)NC(=O)N1c1cccc(C(F)(F)F)c1
0.68
3. CNc1nc(Nc2ccc(C(=O)N3CCOCC3)cc2OC)ncc1Cl
0.99
4. CN[C@@H]1CC[C@@H](c2ccc(Cl)c(Cl)c2)c2ccccc21.Cl
0.17
5. O=C(Nc1snnc1C(=O)Nc1ccc(N2CCCC2)cc1)c1cncc(C(F)(F)F)c1
0.92
6. CCOC(=O)N1CCC(CN(Cc2ccc(Cl)cc2)Cc2ccc([N+](=O)[O-])s2)C1 (stereo not drawn)
0.48
7. CCc1ccc(N(CC(C)C)S(=O)(=O)c2ccc(OCC3CCOCC3)c(CO)c2)cc1
0.81
8. Cc1cc(SCc2sc(-c3ccc(C(F)(F)F)cc3)nc2C)ccc1OCC(=O)O
1
9. CC(C1CC2CCC1C2)n1c(S)nnc1-c1ccco1 (stereo not drawn)
0.69
10. COc1cc2c(NC3CCN(C(C)C)CC3)nc(C3CCCCC3)nc2cc1OCCCN1CCCC1
-0.39
11. CN[C@@H](C)C(=O)N[C@H]1CCCC[C@H]2CC[C@@H](C(=O)N[C@@H](c3ccccc3)c3cn(CCCCc4ccc(CCCCn5cc([C@@H](NC(=O)[C@@H]6CC[C@@H]7CCCC[C@H](NC(=O)[C@H](C)NC)C(=O)N76)c6ccccc6)nn5)cc4)nn3)N2C1=O
0.72
12. CC(C)(C)c1ccc2c(c1)CC[C@H]2NC(=O)Nc1cccc2[nH]ncc12
0.39
13. CNC(=O)c1c[nH]c2ccc(Nc3nccc(-c4ccccn4)n3)cc12
0.33
14. CN[C@@H](C)C(=O)N[C@H](C(=O)N1CCC[C@H]1C(=O)Nc1snnc1-c1ccccc1)C1CCCCC1
-0.27
15. CC1(C)OC(=O)c2ccc(Nc3ncc(-c4nnco4)c(N[C@H](CO)c4ccccc4)n3)cc21
0.12
16. COC[C@@H](C)N[C@H]1CC[C@H](Nc2cc(-c3cccc(NCC4(C#N)CCOCC4)n3)c(Cl)cn2)CC1
0.22
17. CC(C)S(=O)(=O)c1ccccc1Nc1nc(N[C@@H]2CCCN(CCCCCCCNC(=O)COc3cccc4c3C(=O)N(C3CCC(=O)N(C)C3=O)C4=O)C2)ncc1Cl (stereo partly drawn)
-0.33
18. CN1CCN(C(=O)Cc2ccc(N/C(=C3\C(=O)Nc4cc(Cl)ccc43)c3ccccc3)cc2)CC1
0.84
19. CCc1cc2c(cc1N1CCC(N3CCOCC3)CC1)C(C)(C)c1[nH]c3cc(C#N)ccc3c1C2=O
0.95
20. CSc1ccc(C[C@@H](C)C(=O)O)cc1Nc1nc(N2CC[C@H](N(C)C)C2)cc(C(F)F)c1C#N.O=C(O)C(F)(F)F
0.43
21. Cn1cc(-c2cnc3ccc4ccc(CS(=O)(=O)NCc5ccccn5)cc4c(=O)c3c2)cn1
0.56
22. CO[C@H]1C[C@@H]2CC[C@@H](C)[C@@](O)(O2)C(=O)C(=O)N2CCCC[C@H]2C(=O)O[C@H]([C@H](C)C[C@@H]2CC[C@@H](O)[C@H](OC)C2)CC(=O)[C@H](C)/C=C(\C)[C@@H](O)[C@@H](OC)C(=O)[C@H](C)C[C@H](C)/C=C/C=C/C=C/1C
0.16
23. Cn1nc(-c2ccc(C(N)=O)cc2)c2ccccc2c1=O
0.73
